System: HCC-2998 colon
Assay: NCI tumour cell line growth inhibition, 48 h

Compound: N#CC1=C(Cl)NC(Cl)=C(C#N)C1c1ccc(Cl)cc1
Op: =
TGI / µM: 33.2

Compound: CCOC(=O)C1=NC(c2ccccc2)(c2ccccc2)OC1=C(Cl)Cl
Op: =
TGI / µM: 57.4

Compound: Cc1ccc(N=Nc2c(-c3ccccc3)nn(C(=O)CC(=O)Nc3ccc(Cl)cc3)c2-c2ccccc2)cc1
Op: >
TGI / µM: 100

Compound: CC1(C)C2CCC1(C)[C@H](O)[C@H]2Nc1cc(C(F)(F)F)cc(C(F)(F)F)c1 (stereo not given in full)
Op: =
TGI / µM: 9.8

Compound: COc1cc(/C=C2/SC(c3ccccc3)N(c3cc(Cl)ccc3Cl)C2=O)cc(OC)c1OC (stereo not given)
Op: >
TGI / µM: 100

====

// reported TGI per item
System: SK-MEL-28 melanoma
Assay: NCI tumour cell line growth inhibition, 48 h

Compound: CCCCC1C=Cn2c(=O)oc3c(OC(C)C)c(OC(C)C)c(O)c1c32 (configuration not stated)
TGI: 39.3 µM

Compound: C=CCSSC1N=CNc2nc[nH]c21 (configuration not stated)
TGI: > 70.2 µM

Compound: COc1ccc(-n2sc3ncc(C)cc3c2=O)cc1
TGI: 73 µM

Compound: O=S(CCc1ccccc1)Nc1ccccc1 (configuration not stated)
TGI: > 100 µM

Compound: CC(C1CCCC1=O)C1CCCC1=O (configuration not stated)
TGI: > 100 µM

Compound: CN(C)c1nc(N(C)C)sc(=O)n1
TGI: > 100 µM

Compound: O=C1NC(c2cccc3ccccc23)Nc2ccc(O)cc21 (configuration not stated)
TGI: > 150 µM

Compound: CC(NS(=O)(=O)c1ccc(Cl)cc1)C(=O)O (configuration not stated)
TGI: > 100 µM

Compound: COC12COC(=O)C1C(c1ccc3c(c1)OCO3)c1cc3c(cc1O2)OCO3 (configuration not stated)
TGI: > 100 µM

Compound: CC(=O)Nc1ccc(C2C(C(=O)Nc3ccccc3C)=C(C)NC(C)=C2C(=O)Nc2ccccc2C)cc1
TGI: > 100 µM

Compound: Cc1ccc(/C=C2\CN(C)CC3=C2NC(=S)NC3c2ccc(C)cc2)cc1 (configuration not stated)
TGI: > 100 µM

Compound: Cc1nc(Nc2ccc(Cl)cc2Cl)sc1C(=O)Nc1ccccc1
TGI: > 100 µM

====

System: HCC-2998 colon
Assay: NCI tumour cell line growth inhibition, 48 h
Where a SMILES comes first, the peptide text is derived from it. [ ]: non-standard residue; d: D form. The star is where a group is joined. Nle = CCCC[C@H](N)C(=O)O; Cbz = O=C(OCc1ccccc1)*
Reported Endpoint: TGI (µM)

Compound: Cc1ccc2ccc(O)cc2c1
Target Of Assay: HCC-2998 colon
Reported Endpoint: TGI
Op: =
Observed: 46.8

Compound: CC[C@H](Nc1cc(C)nc(N)n1)c1nc2cccc(NCc3ccc(C(=O)NO)cc3)c2c(=O)n1-c1ccccc1
Target Of Assay: HCC-2998 colon
Reported Endpoint: TGI
Op: =
Observed: 3.34

Compound: COCP1(=S)OC(C)CCN1C(C)C (stereo not given)
Target Of Assay: HCC-2998 colon
Reported Endpoint: TGI
Op: >
Observed: 100

Compound: CCCC[C@@H](C=O)NC(=O)[C@H](CC(C)C)NC(=O)[C@H](CC(C)C)NC(=O)OCc1ccccc1 (Cbz-Leu-Leu-[Nle]-aldehyde)
Target Of Assay: HCC-2998 colon
Reported Endpoint: TGI
Op: =
Observed: 1.96

Compound: CC(C)CC(N=Cc1nc(-c2ccccc2)oc1O)C(=O)O (stereo not given)
Target Of Assay: HCC-2998 colon
Reported Endpoint: TGI
Op: >
Observed: 100

====

Test system: TK-10 renal
Experiment: NCI tumour cell line growth inhibition, 48 h

Molecule: C=C1C(=O)[C@@]23CC[C@@H]4[C@@]5(C)CCC[C@@]4(OC5=O)C2(C)CC[C@]1(OC)C3 (stereo partly specified)
TGI: 3.18 µM
//
Molecule: Brc1ccc2c(C3CN[C@@H](c4c[nH]c5cc(Br)ccc45)CN3)c[nH]c2c1 (stereo partly specified)
TGI: 20.8 µM
//
Molecule: CCOP(=O)(OCC)OC1c2[nH]ccc2-c2cc(C(=O)OC)[nH]c2C1OC (stereo unspecified)
TGI: > 100 µM
//
Molecule: COC(=O)C(=Cc1ccccc1[N+](=O)[O-])C(=O)OC
TGI: 18.1 µM
//
Molecule: CC(C)C(O)(C(=O)OCN1C(=O)C2C3C=CC(C2C1=O)C1C2C(=O)N(COC(=O)C(O)(C(C)C)C(C)O)C(=O)C2C31)C(C)O (stereo unspecified)
TGI: > 100 µM
//
Molecule: COc1ccc([C@H]2[C@H](C)C3=Nc4ccccc4CN32)cc1
TGI: > 100 µM
//
Molecule: COc1ccc(C(=O)Cc2ccc(Cl)cc2)cc1OC
TGI: > 100 µM
//
Molecule: COc1ccc2c(c1)SC1=NNC(Cl)C(=O)N12 (stereo unspecified)
TGI: 81.1 µM
//
Molecule: Cc1ccc2cc3c(N)c4c(C)ccc(C)c4nc3nc2c1
TGI: 25.5 µM
//
Molecule: C=C(CN1CCc2ccccc2C1)c1ccc(CCC(=O)Nc2ccccc2N)cc1
TGI: > 100 µM
//
Molecule: CC(=O)Oc1ccc(/C=C/C(=O)NCC(NC(=O)/C=C/c2ccc(OC(C)=O)c(OC(C)=O)c2)C(=O)O)cc1OC(C)=O (stereo unspecified)
TGI: > 100 µM
//
Molecule: COc1ccc(C2C(C#N)=C(N)Oc3c2sc2c(C)cccc32)cc1 (stereo unspecified)
TGI: 34.2 µM
//
Molecule: COc1ccc(CN=C2N/C(=C\c3ccccc3Cl)C(=O)N2C)cc1
TGI: > 100 µM
//
Molecule: COc1ccc(/C=C/C(=O)c2ccc(NC(=O)CSc3nnc(-c4ccc(OC)c(OC)c4)n3-c3ccccc3)cc2)cc1
TGI: 28.1 µM
//
Molecule: COc1ccc(NCc2cc(OC)cc(OC)c2)cc1
TGI: > 100 µM
//
Molecule: C=CCSSC1N=CNc2nc[nH]c21 (stereo unspecified)
TGI: 23.8 µM
//
Molecule: CC(NS(=O)(=O)c1ccc(Cl)cc1)C(=O)O (stereo unspecified)
TGI: > 100 µM
//
Molecule: CCOC(=O)C1=CC(C)(C(=O)OCC)Nc2c(nc(SC)[nH]c2=O)N1 (stereo unspecified)
TGI: > 10 µM
//
Molecule: CCc1nc(N)nc(N)c1-c1ccc2c(c1)nnn2CCc1ccccc1
TGI: > 83.7 µM
//
Molecule: COC(=O)Cc1c([C@H]2[C@H](CC(=O)OC)c3ccccc3N2C(=O)C(F)(F)F)[nH]c2ccccc12
TGI: > 100 µM
//
Molecule: CC(=O)c1c(C)cn(S(=O)(=O)NC(=O)Nc2nncs2)c1C
TGI: > 100 µM

====

Tested on: HCT-15 colon
Experiment: NCI tumour cell line growth inhibition, 48 h
Where a SMILES comes first, the peptide text is derived from it. [ ]: non-standard residue; d: D form. The star is where a group is joined. NMeF = CN[CH](Cc1ccccc1)C(=O)O; NMeV = CN[CH](C(=O)O)C(C)C; Boc = CC(C)(C)OC(=O)*
// reported TGI per item
Reported Endpoint: TGI

Molecule: COCP1(=S)OC(C)CCN1C(C)C (stereo not given)
Target Of Assay: HCT-15 colon
Reported Endpoint: TGI
Observed: > 100 µM
--
Molecule: O=C1C[C@@H](c2ccc(O)cc2)[C@@]2(O1)C(=O)O[C@H]([C@@H](O)CO)[C@@H]2O
Target Of Assay: HCT-15 colon
Reported Endpoint: TGI
Observed: > 100 µM
--
Molecule: CC1OC2=N[C@@H]1C(=O)N[C@@H](Cc1ccccc1)C1=N[C@H](C(=O)N[C@@H](Cc3ccccc3)C3=N[C@H](C(=O)N[C@H]2Cc2ccccc2)C(C)O3)C(C)O1 (stereo not given in full)
Target Of Assay: HCT-15 colon
Reported Endpoint: TGI
Observed: > 100 µM
--
Molecule: C=C1CC(Cn2cc(C)c(=O)[nH]c2=O)(c2ccc(Cl)cc2)OC1=O (stereo not given)
Target Of Assay: HCT-15 colon
Reported Endpoint: TGI
Observed: 2.37 µM
--
Molecule: COc1cc2c3c(c1O)N=NC=3CCN=2
Target Of Assay: HCT-15 colon
Reported Endpoint: TGI
Observed: > 100 µM
--
Molecule: O=c1[nH]cnc2[nH]cc(CN3CCCCC3)c12
Target Of Assay: HCT-15 colon
Reported Endpoint: TGI
Observed: > 100 µM
--
Molecule: COC(=O)C(C(=O)C(=O)Nc1nc(=S)[nH][nH]1)c1csc(N)n1 (stereo not given)
Target Of Assay: HCT-15 colon
Reported Endpoint: TGI
Observed: > 100 µM
--
Molecule: CCOC(=O)C(CS)NC(=O)CCCCCCCC(=O)O (stereo not given)
Target Of Assay: HCT-15 colon
Reported Endpoint: TGI
Observed: > 100 µM
--
Molecule: O=C1NC(c2cccc3ccccc23)Nc2ccc(O)cc21 (stereo not given)
Target Of Assay: HCT-15 colon
Reported Endpoint: TGI
Observed: 78.3 µM
--
Molecule: CCCCSC(=CC(=O)c1cccc(C(=O)C=C(SCCCC)SCCCC)n1)SCCCC
Target Of Assay: HCT-15 colon
Reported Endpoint: TGI
Observed: > 100 µM
--
Molecule: C/C(O)=c1\cc(C#N)c(=C(C#N)C#N)nc1C
Target Of Assay: HCT-15 colon
Reported Endpoint: TGI
Observed: > 100 µM
--
Molecule: COc1ccc(C2c3c(n(C)c(=O)n(C)c3=O)OC(N(C)C)(N(C)C)C2(F)F)cc1 (stereo not given)
Target Of Assay: HCT-15 colon
Reported Endpoint: TGI
Observed: > 100 µM
--
Molecule: C=C1CCC(O)C/C1=C/C=C1\CCCC2(C)C1CCC2C(C)CCCC(C)C (stereo not given)
Target Of Assay: HCT-15 colon
Reported Endpoint: TGI
Observed: 35.3 µM
--
Molecule: C[C@]12CCC3[C@@H](CC[C@@H]4c5nonc5CC[C@]34C)C1CCC2=O (stereo not given in full)
Target Of Assay: HCT-15 colon
Reported Endpoint: TGI
Observed: > 100 µM
--
Molecule: CC(C)C(NC(=O)OC(C)(C)C)C(=O)N(C)C(Cc1ccccc1)C(=O)N(C)C(C(=O)N(C)C(C(=O)O)C(C)C)C(C)C (stereo not given) (Boc-V[NMeF][NMeV][NMeV]-OH; configuration not given here)
Target Of Assay: HCT-15 colon
Reported Endpoint: TGI
Observed: > 100 µM
